Reference source: paper PMC8119466

Molecular target: recombinant PRL-2 (Homo sapiens)
Construct: 6xHis (N, cleaved yes); made in house; host or cells: E. coli One Shot BL21 Star
Sequence (Q12974 whole entry): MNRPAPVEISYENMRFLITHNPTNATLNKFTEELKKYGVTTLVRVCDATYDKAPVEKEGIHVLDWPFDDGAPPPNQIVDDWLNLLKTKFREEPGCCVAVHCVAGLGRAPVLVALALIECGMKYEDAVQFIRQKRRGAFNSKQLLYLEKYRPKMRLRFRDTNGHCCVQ
Assay: In vitro phosphatase assay (DiFMUP hydrolysis), PRL-2;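 note: PRL-2 activity read as DiFMUP hydrolysis after 20 min at room temperature with drug, enzyme first pre-reduced at 4 °C for 20 min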
Type: biochemical
Settings: FDA-approved drug screen; compared to DMSO
Structures can show the parent of a compound that is named as a salt.
For each of the molecules below, state its % Phosphatase Activity (compared to DMSO) PRL-2.
Give bare numbers, in %.

Check out these entries, answers already filled in.
{"columns": ["Molecule", "Tested Target", "Reported Value"],
 "data": [
  ["Oc1cccc(O)c1", "recombinant PRL-2 (Homo sapiens)", 88],
  ["CCCc1nc(C(C)(C)O)c(C(=O)OCc2oc(=O)oc2C)n1Cc1ccc(-c2ccccc2-c2nnn[nH]2)cc1", "recombinant PRL-2 (Homo sapiens)", 93],
  ["O=C(C1CCCCC1)N1CC(=O)N2CCc3ccccc3C2C1 (stereo not shown)", "recombinant PRL-2 (Homo sapiens)", 88],
  ["CN(C)[C@@H]1C(O)=C(C(N)=O)C(=O)[C@@]2(O)C(O)=C3C(=O)c4c(O)ccc(Cl)c4[C@@](C)(O)[C@H]3C[C@@H]12 [Chlortetracycline HCl]", "recombinant PRL-2 (Homo sapiens)", 95],
  ["COC(=O)Nc1nc2ccc([S+]([O-])c3ccccc3)cc2[nH]1 (stereo not shown)", "recombinant PRL-2 (Homo sapiens)", 102],
  ["O=C(C[S+]([O-])Cc1ccco1)NC/C=C\\COc1cc(CN2CCCCC2)ccn1 (stereo not shown)", "recombinant PRL-2 (Homo sapiens)", 115]
]}

Req: Quick check: % Phosphatase Activity (compared to DMSO) PRL-2 of CO[C@H]1/C=C/O[C@@]2(C)Oc3c(C)c(O)c4c(O)c(c5c(nc6cc(C)ccn65)c4c3C2=O)NC(=O)/C(C)=C\C=C\[C@H](C)[C@H](O)[C@@H](C)[C@@H](O)[C@@H](C)[C@H](OC(C)=O)[C@@H]1C ?
Resp: 60
